Listing of entries alongside the reported pEC50.
target: T1, human Claudin18.2 (human); experiment: cell ELISA, Claudin18.2-expressing HEK293T cells
T1 construct: also called CLDN18.2
To interpret pEC50, take it as minus log10 of a concentration measured in moles per litre.

240D6F5 (antibody, V domains shown, mouse hybridoma mAb) VH: QAYLQQSGAELVRSGASVKMSCKASGYTFTSHNMHWVKQTPGQGLEWIGYIYPGNGGTNYNQKFKGKATLTADPSSSTAYMQINSLTSEDSAVYFCTRDYYGNSFAYWGQGTLVTVSA VL: DIVMTQSPSSLTEKAGERVSMSCKSSQSLFNSGNQKNYLTWYQQKPGQPPKLLIYWASTRESGVPDRFTGSGSGTDFTLTISSVQAEDLAVYYCQNDYRYPFTFGAGTKLELK: 8.75

Task: I have this binder here, 201F4H6 (antibody, V domains shown, mouse hybridoma mAb) VH: QVQLKESGPGLVAPSQSLSITCTVSGFSLTSYGVSWVRQPPGKGLECLGVIWAGGNTNYNSALMSRLSISKDKSKSQVFLKMNSLQTDDTAMYYCARVYYGNAMDYWGQGTSVTVSS VL: DIVMTQSPSSLTVTAGEKVTMSCKSSQSLLNSGNQKSYLTWYQQRPGQPPKLLIYWASTRESGVPDRFTGSGSGTDFTLTISSVQAEDLAVYFCQNVYFFPFTFGSGTKLETK , and I need its recorded pEC50.
Result: 9.55

Task: And then 280F3B6 (antibody, V domains shown, mouse hybridoma mAb) VH: QAYLQQSGAELVRSGASVKMSCKASGYTFTSHNMHWVKQTPGQGLEWIGYIYPGNGGTNYNQKFKGKATLTADTSSSTAYMQISSLTSEDSAVYFCTRDYYGNSFAYWGQGTLVTVSA VL: DIVMTQSPSSLTEKAGERVSMSCKSSQSLFNSGNQKNYLTWYQQKPGQPPKLLIYWASTRESGVPDRFTGSGSGTDFTLTISSVQAEDLAVYYCQNDYWYPFTFGAGTKLELK , what is it?
Result: 9.23

Task: Let us now turn to 409G10G6 (antibody, V domains shown, mouse hybridoma mAb) VH: DVQLVESGGGLVQPGGSRKLSCAASGFTFSGFGMHWIRQTPEKGLEWVAYISSDSRPIYYADTVKGRFTISRDNPKNTLFLQMTSLRSEDTAMYFCGRFYYGNSFDHWGQGTLVTVSA VL: DIVMTQSPSFLTVTAGEKVTLSCRSSQSLLNSGNQRNYLTWYQQKPGQPPKLLIYWASTRESGVPDRFTGSGSGTDFTLTISSVQAEDRALYYCQNAYSFPLTFGTGTKLELR
Result: 8.66
